- TARGET UNDER TEST: GST-Flk1 (Mus musculus, UniProt P35918)
- Construct: GST-Flk1cd purified from sf9 recombinant baculovirus transformation
- Sequence (P35918 784-1345 limits assumed): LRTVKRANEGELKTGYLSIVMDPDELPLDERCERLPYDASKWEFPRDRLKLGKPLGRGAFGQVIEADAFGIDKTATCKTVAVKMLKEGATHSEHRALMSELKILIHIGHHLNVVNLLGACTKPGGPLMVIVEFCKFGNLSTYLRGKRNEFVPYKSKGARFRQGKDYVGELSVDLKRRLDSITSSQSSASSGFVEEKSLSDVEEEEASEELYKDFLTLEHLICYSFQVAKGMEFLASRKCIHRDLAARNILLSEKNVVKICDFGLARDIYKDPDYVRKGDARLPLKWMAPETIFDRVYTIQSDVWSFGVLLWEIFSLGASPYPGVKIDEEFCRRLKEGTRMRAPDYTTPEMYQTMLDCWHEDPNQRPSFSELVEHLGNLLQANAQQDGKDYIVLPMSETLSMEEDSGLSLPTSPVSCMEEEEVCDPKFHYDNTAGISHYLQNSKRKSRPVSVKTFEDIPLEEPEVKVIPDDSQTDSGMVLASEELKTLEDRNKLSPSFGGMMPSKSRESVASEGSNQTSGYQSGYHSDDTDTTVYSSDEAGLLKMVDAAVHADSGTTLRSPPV
- ASSAY PROTOCOL: GST-FLK-1 bioassay (bio flkGST)
OBSERVATION TYPE: pIC50
Give bare numbers, as −log10 of the molar value.

Here is how some compounds turned out for pIC50.
SUBSTANCE SMILES | pIC50
CCN(CC)CCCNC(=O)c1c(C)[nH]c(/C=C2\C(=O)Nc3ccc(Br)cc32)c1-c1ccccc1 | 7.10
COc1ccccc1-c1ccc2c(c1)NC(=O)/C2=C\c1[nH]c(C)c(C(=O)NCCN(C)C)c1C | 5.70

Moving on to the next compound.
Query: For the record COc1ccc(C(C)C)cc1-c1ccc2c(c1)NC(=O)/C2=C\c1[nH]c(C)c(C(=O)NCCN2CCCC2)c1C , what value of pIC50 is listed for GST-Flk1 (Mus musculus, UniProt P35918)?
Reply: 5.48

The measured values listed here are drawn from patent US6573293B2.
